Biological target: Recombinant Human L-Selectin/IgG binding to heparin (Homo sapiens, UniProt P14151)
Sequence (P14151 39-332 limits assumed): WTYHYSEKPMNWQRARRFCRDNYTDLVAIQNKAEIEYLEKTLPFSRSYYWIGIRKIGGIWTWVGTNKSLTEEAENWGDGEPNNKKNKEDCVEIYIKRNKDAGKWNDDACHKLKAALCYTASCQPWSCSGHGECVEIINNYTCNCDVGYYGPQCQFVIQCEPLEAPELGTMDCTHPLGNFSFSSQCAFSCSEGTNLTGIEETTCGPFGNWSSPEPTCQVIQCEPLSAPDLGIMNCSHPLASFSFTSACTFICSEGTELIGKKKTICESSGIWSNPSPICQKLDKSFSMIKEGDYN
Assay: Inhibition of L-selectin binding to heparin (ELISA, immobilized heparin-BSA)
Details: compounds tested at 0.01 to 300 μM; representative results; read-out: IC-50, inhibition of L-Selectin binding to heparin
Measurement Label: IC50 (µM)
Numbers only, in µM.

Cc1ccc(CSc2nc3cc(C(=O)NCCCN4CCOCC4)ccc3c(=O)n2-c2ccc(F)cc2)cc1 : 24

State recorded IC50 for all listed molecules.
1. O=C(NCCCN1CCOCC1)c1ccc2c(=O)n(-c3ccc(F)cc3)c(SCc3cccc(F)c3)nc2c1
2. CN1CCN(C(=O)c2ccc3c(=O)n(-c4ccccc4)c(SCC(=O)C(C)(C)C)nc3c2)CC1
3. O=C(NCCCN1CCOCC1)c1ccc2c(=O)n(-c3ccc(F)cc3)c(SCc3ccc(Cl)cc3)nc2c1
4. CC(C)Cn1c(S)nc2cc(C(=O)NCCCn3ccnc3)ccc2c1=O

1. 22
2. 22
3. 7
4. 21
